Field IC50: reported value for Ribosomal protein S6 kinase beta-1 (Homo sapiens, UniProt P23443); entries drawn from several documents.
// assign 1 if IC50 falls strictly below 10 nM, else -1 (ties count as -1)

Recorded results for 6 compounds are shown here.
CC(C)NCCNc1ccc(-c2cc(C(F)(F)F)nn2C)nc1C1CCN(c2ncnc3c2C(C)(C)C(=O)N3)CC1 : 1
CC1(C)C(=O)Nc2ncnc(N3CCC(c4nc(-c5cncc(F)c5)ccc4NCCN4CCCC4)CC3)c21 : 1
COc1cc2ncc3c(N)nc(-c4cncc(OC[C@H](N)CN5Cc6ccccc6C5)c4)cc3c2cc1OC : -1
C[C@@H](Nc1ncc2cc(-c3ncnc4[nH]ncc34)ccc2n1)c1c(F)cccc1F : -1
CN(Cc1ccc(F)cc1)c1cnc2cc(-c3cn[nH]c3)ccc2n1 : -1
C[C@H](c1ccccc1)N(C)c1ncc2cc(-c3ncnc4[nH]ncc34)ccc2n1 : -1

Just wondering, is IC50 of COc1cncc(-c2ccc(NCCN(C)C)c(C3CCN(c4ncnc5c4C(C)C(=O)N5)CC3)n2)c1 (stereo not shown) below 10 nM?
1

Answer whether the compound CC1C(=O)Nc2ncnc(N3CCC(c4nc(-c5ccoc5)ccc4NCCN4CCCC4)CC3)c21 (stereo not shown) has IC50 strictly less than 10 nM
1

# strict comparison: is reported IC50 < 10 nM? input = `C[C@@H](Nc1ncc2cc(-c3ncnc4[nH]cc(C#N)c34)ccc2n1)c1ccccc1`
-1

Identify whether the compound `C[C@@H](Nc1ncc2ccc(-c3ncnc4[nH]ncc34)cc2n1)c1ccccc1` records IC50 below 10 nM.
-1

API: query returns whether the compound falls strictly under 10 nM in IC50. Query: `CCN(Cc1ccccc1)c1cnc2cc(-c3cn[nH]c3)ccc2n1`
-1

Does this compound meet the criterion IC50 < 10 nM? `C[C@@H](Nc1ncc2cc(-c3ncnc4[nH]ncc34)ccc2n1)c1cccc(F)c1`
-1

IC50 strictly < 10 nM for this compound? `CN1CCCNc2c(c(=O)c2=O)NCCCN(C)CCCNc2c(c(=O)c2=O)NCCCN(C)CCCNc2c(c(=O)c2=O)NCCCN(C)CCCNc2c(c(=O)c2=O)NCCCN(C)CCCNc2c(c(=O)c2=O)NCCC1`
-1
